B1: tRNA (parent)
chain: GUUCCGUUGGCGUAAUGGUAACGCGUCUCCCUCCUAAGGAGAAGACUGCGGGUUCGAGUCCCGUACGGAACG

- Variants of: B1
- Protocol Notes: yeast fitness relative to wild type (ratio to wild type); higher = fitter; tRNA-Arg(CCU), competitive growth, 37 C, YPD
Variants at the floor of the assay were thinned out.
Returns Met if the recorded yeast fitness is greater than or equal to 0.6, and Not met otherwise.

[
  {
    "Mutation List": "A14G C24G C31U G68A",
    "Class Name": "Not met"
  },
  {
    "Mutation List": "U26A C31A A42G C55G",
    "Class Name": "Not met"
  },
  {
    "Mutation List": "U26G A45U G50A",
    "Class Name": "Not met"
  },
  {
    "Mutation List": "G6A G10A A43G U47G",
    "Class Name": "Met"
  },
  {
    "Mutation List": "U19G C24A A40C A45U",
    "Class Name": "Not met"
  },
  {
    "Mutation List": "A15G A43U A69C",
    "Class Name": "Met"
  },
  {
    "Mutation List": "C24A A42G C49U U59G C62A A69G",
    "Class Name": "Not met"
  },
  {
    "Mutation List": "G9A C22A A37U C55G",
    "Class Name": "Not met"
  },
  {
    "Mutation List": "U3G C11U G68A",
    "Class Name": "Not met"
  },
  {
    "Mutation List": "U2A G6A",
    "Class Name": "Met"
  }
]
